The measured values listed here are drawn from ChEMBL document CHEMBL5137025.

System: Mycobacterium tuberculosis
procedure.details: Antibacterial activity against Mycobacterium tuberculosis infected in macrophage assessed as inhibition of bacterial growth in presence of Ethionamide
Assay type: functional, organism-based
pEC50: −log10 of the molar value.
measured.parameter: pEC50

molecular.string | subject.of.test | measured.parameter | recorded.number
O=C(CCC(F)(F)F)N1CCC2(CC1)CC(c1ccccc1)=NO2 | Mycobacterium tuberculosis | pEC50 | 7.70

====

procedure.details: Cytotoxicity against African green monkey Vero cells by MTT assay
Format: toxicity, cell-based
condition.summary: chlorocebus sabaeus
measured.parameter: CC50

molecule | measured.parameter | result
O=C(Nc1nnc(C2CCCO2)o1)c1ccc([N+](=O)[O-])o1 (stereo unspecified) | CC50 | > 218 µM
